Target: Induced myeloid leukemia cell differentiation protein Mcl-1 (Homo sapiens, UniProt Q07820)
Sequence (Q07820 whole entry): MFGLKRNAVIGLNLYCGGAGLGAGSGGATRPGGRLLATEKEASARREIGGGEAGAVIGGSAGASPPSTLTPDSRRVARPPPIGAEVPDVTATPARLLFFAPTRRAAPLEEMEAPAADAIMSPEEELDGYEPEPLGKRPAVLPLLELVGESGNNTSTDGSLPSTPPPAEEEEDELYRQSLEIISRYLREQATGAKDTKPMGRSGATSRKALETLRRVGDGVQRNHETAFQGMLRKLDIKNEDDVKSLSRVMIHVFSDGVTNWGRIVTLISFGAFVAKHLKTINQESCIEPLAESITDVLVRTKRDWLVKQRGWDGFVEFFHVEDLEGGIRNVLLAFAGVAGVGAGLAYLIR
Assay: Displacement of FITC-Bim BH3 peptide from Mcl-1 after 10 mins by fluorescence polarization assay
Measured quantity: IC50 (nM)
The response must be a number in nM with no trailing unit.

- Compound: "CC1=C(C2=C(C)C(=O)c3c(cc(O)c(O)c3CCCc3ccccc3)C2=O)C(=O)c2cc(O)c(O)c(CCCc3ccccc3)c2C1=O"
  System tested: "Induced myeloid leukemia cell differentiation protein Mcl-1 (Homo sapiens, UniProt Q07820)"
  Reading unit: "nM"
  IC50: 670

Look up IC50 for this compound: CC1=C(C2=C(C)C(=O)c3c(cc(O)c(O)c3C(=O)NCC(C)c3ccccc3)C2=O)C(=O)c2cc(O)c(O)c(C(=O)NCC(C)c3ccccc3)c2C1=O (configuration not stated)
470

Note, next up: CC1=C(C2=C(C)C(=O)c3c(cc(O)c(O)c3Cc3ccc(Cl)cc3)C2=O)C(=O)c2cc(O)c(O)c(Cc3ccc(Cl)cc3)c2C1=O
400

Note, next up: CC1=C(C2=C(C)C(=O)c3c(cc(O)c(O)c3Cc3ccccc3)C2=O)C(=O)c2cc(O)c(O)c(Cc3ccccc3)c2C1=O
240

Note, next up: CC1=C(C2=C(C)C(=O)c3c(cc(O)c(O)c3C(=O)Cc3ccccc3)C2=O)C(=O)c2cc(O)c(O)c(C(=O)Cc3ccccc3)c2C1=O
350

Note, next up: CC1=C(C2=C(C)C(=O)c3c(cc(O)c(O)c3CC3CCCC3)C2=O)C(=O)c2cc(O)c(O)c(CC3CCCC3)c2C1=O
3080

Note, next up: CC1=C(C2=C(C)C(=O)c3c(cc(O)c(O)c3CCc3ccccc3)C2=O)C(=O)c2cc(O)c(O)c(CCc3ccccc3)c2C1=O
1290
